tested on: MCF-7 cells; assay: Dark toxicity, MTT cell viability (Example 4); assay type: cell-based; details: Homo sapiens, MCF7, light or radiation study; MCF-7, 96 hr, no irradiation
readout.kind: IC50

Input line: Consider the compound `COc1ccc(/C=C\c2cc(OC)c(OC)c(OC)c2)cc1O` and give its measured IC50.
Output line: 8 nM
